# Assayed target: Mannose-6-phosphate isomerase (Homo sapiens) (UniProt P34949)
# Sequence (P34949 whole entry, looked up): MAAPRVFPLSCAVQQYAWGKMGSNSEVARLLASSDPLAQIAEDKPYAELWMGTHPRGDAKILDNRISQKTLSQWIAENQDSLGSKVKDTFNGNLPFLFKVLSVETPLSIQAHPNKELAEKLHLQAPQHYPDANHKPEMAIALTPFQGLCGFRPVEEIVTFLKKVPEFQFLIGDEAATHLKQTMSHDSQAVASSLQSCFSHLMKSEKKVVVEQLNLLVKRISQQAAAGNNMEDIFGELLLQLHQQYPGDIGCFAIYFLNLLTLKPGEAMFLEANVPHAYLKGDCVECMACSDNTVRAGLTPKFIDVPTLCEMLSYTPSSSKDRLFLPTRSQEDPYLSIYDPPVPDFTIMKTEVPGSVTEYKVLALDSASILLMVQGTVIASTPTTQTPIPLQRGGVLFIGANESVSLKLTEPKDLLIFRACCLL
# Assay notes: MPI activation at elevated mannose 6-phosphate – biochemical, fluorescence intensity, near-saturating mannose 6-phosphate, primary screen (AID 1216)
# Cond: coupled PMI enzyme assay, resazurin fluorescence, 20 min; at 20 µM; stronger effect = higher value; 1 = untreated enzyme, 0 = substrate-free blank
About 660 (0.35%) of roughly 190,000 compounds were called active. Shown is part of a subset that was picked to be rich in actives.
Test readout: activation factor

INSERT INTO measurements (compound, assayed_target, endpoint_result) VALUES
  ('S=C(c1ccc(-c2ccccc2)o1)N1CCCCC1', 'Mannose-6-phosphate isomerase (Homo sapiens) (UniProt P34949)', 0.9),
  ('CCC1=NN(C(=O)Cc2ccc([N+](=O)[O-])cc2)C(O)(c2ccc(Br)cc2)C1 (stereo not given)', 'Mannose-6-phosphate isomerase (Homo sapiens) (UniProt P34949)', 0.9),
  ('CCOc1cc(N2CCOCC2)c(OCC)cc1NC(=O)c1ccc(C)s1', 'Mannose-6-phosphate isomerase (Homo sapiens) (UniProt P34949)', 0.7),
  ('COc1ccccc1N(CC(=O)Nc1ccc(C(F)(F)F)cc1)S(C)(=O)=O', 'Mannose-6-phosphate isomerase (Homo sapiens) (UniProt P34949)', 1.1),
  ('CCN(CC)CCN1C(=O)C(=O)/C(=C(/O)c2ccccc2)C1c1ccccc1F (stereo not given)', 'Mannose-6-phosphate isomerase (Homo sapiens) (UniProt P34949)', 1);

The measurements presented in this section are drawn from PubChem BioAssay AID1216.
